# assay remarks: Drug metabolism in human liver S9 fraction assessed as glucuronidation in presence of PAPS and UDPGA incubated for 20 mins
# Type: ADME, subcellular
# test conditions: read-out: Drug metabolism
Rule for this label: TRUE means metabolised at 20 min is less than 8%; FALSE means metabolised at 20 min is at least 8%.

| line notation | class assignment |
| --- | --- |
| CCn1nc(-c2cccc(-c3ccc(O)cc3F)c2)cc(NC(=O)Nc2c(Cl)cncc2Cl)c1=O | FALSE |
| CCn1nc(-c2cccc(-c3cncc(O)c3)c2)cc(NC(=O)Nc2c(Cl)cncc2Cl)c1=O | FALSE |
| CCn1nc(-c2cccc(-c3cccc(C(=O)O)c3)c2)cc(NC(=O)Nc2c(Cl)cncc2Cl)c1=O | FALSE |
| CCn1nc(-c2cccc(-c3ccc(O)cc3)c2)cc(NC(=O)Nc2c(Cl)cncc2Cl)c1=O | TRUE |
| CCn1nc(-c2cccc(-c3ccc(CC(=O)O)cc3)c2)cc(NC(=O)Nc2c(Cl)cncc2Cl)c1=O | FALSE |
| CCn1nc(-c2cccc(-c3cccc(O)c3)c2)cc(NC(=O)Nc2c(Cl)cncc2Cl)c1=O | FALSE |
| CCn1nc(-c2cccc(-c3ccccc3O)c2)cc(NC(=O)Nc2c(Cl)cncc2Cl)c1=O | TRUE |

* * *

# measured on: Adenosine receptor A2a (Homo sapiens, UniProt P29274)
# Sequence (P29274 whole entry): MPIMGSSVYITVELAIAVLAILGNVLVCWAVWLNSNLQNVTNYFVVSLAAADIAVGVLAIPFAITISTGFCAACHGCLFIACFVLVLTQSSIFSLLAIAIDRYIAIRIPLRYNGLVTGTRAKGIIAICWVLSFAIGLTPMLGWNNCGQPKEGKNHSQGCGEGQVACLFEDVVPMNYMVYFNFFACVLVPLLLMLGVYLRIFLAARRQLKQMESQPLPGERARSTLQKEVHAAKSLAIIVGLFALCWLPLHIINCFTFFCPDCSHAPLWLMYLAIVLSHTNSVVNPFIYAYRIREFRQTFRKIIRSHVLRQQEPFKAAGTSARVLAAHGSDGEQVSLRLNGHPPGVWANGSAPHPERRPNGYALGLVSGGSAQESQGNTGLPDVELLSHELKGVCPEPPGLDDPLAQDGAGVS
measure name: IC50

| compound | readout value |
| --- | --- |
| O=C(Nc1c(Cl)cncc1Cl)c1ccc(OC(F)F)c(OCC2CC2)c1 | > 1000 nM |
| CCn1nc(-c2cccc(-c3cc(C(=O)NCCN4CCCCC4)cc(C(=O)NC4CC4)c3)c2)cc(NC(=O)Nc2c(Cl)cncc2Cl)c1=O | > 1000 nM |
| CCn1nc(-c2cccc(-c3cccc(C(=O)NCCC4CCCN4C)c3)c2)cc(NC(=O)Nc2c(Cl)cncc2Cl)c1=O (configuration not stated) | 5 nM |
| CCOc1cc(C(=O)NC2CC2)cc(-c2cccc(-c3cc(NC(=O)Nc4c(Cl)cncc4Cl)c(=O)n(CC)n3)c2)c1 | > 1000 nM |
| CCn1nc(-c2cccc(-c3cccc(C(=O)NCCN4CCNCC4)c3)c2)cc(NC(=O)Nc2c(Cl)cncc2Cl)c1=O | 9 nM |
| CCn1nc(-c2cccc(-c3cccc(CC(=O)NCCCCCCCN(C)CCO)c3)c2)cc(NC(=O)Nc2c(Cl)cncc2Cl)c1=O | 59 nM |
| CCn1nc(-c2cccc(-c3cccc(C(=O)NCCN4CCOCC4)c3)c2)cc(NC(=O)Nc2c(Cl)cncc2Cl)c1=O | 33 nM |

* * *

# measured on: Adenosine receptor A1 (Homo sapiens)
# Sequence (P30542 whole entry): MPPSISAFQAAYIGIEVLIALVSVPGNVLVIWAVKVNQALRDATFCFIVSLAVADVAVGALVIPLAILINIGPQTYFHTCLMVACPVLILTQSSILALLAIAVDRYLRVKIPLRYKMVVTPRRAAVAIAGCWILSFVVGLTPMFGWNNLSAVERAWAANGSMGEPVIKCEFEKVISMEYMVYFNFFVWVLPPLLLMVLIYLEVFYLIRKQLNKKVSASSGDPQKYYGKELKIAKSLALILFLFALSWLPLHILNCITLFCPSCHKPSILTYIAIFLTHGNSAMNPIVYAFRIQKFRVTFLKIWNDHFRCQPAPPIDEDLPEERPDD
measure name: IC50 (nM)

| line notation | measure name | censoring operator | readout value |
| --- | --- | --- | --- |
| CCn1nc(-c2cccc(-c3cccc(C(=O)NCCN4CCOCC4)c3)c2)cc(NC(=O)Nc2c(Cl)cncc2Cl)c1=O | IC50 | = | 15 |
| CCn1nc(-c2cccc(-c3cccc(C(=O)NC4CC4)c3)c2)cc(NC(=O)Nc2c(Cl)cncc2Cl)c1=O | IC50 | = | 10 |
| CCn1nc(-c2cccc(-c3cc(C(=O)NCC[C@H]4CCCN4C)cc(C(=O)NC4CC4)c3)c2)cc(NC(=O)Nc2c(Cl)cncc2Cl)c1=O | IC50 | = | 399 |
| CCn1nc(-c2cccc(-c3cc(C(=O)NCCN4CCCCC4)cc(C(=O)NC4CC4)c3)c2)cc(NC(=O)Nc2c(Cl)cncc2Cl)c1=O | IC50 | > | 1000 |
| CCn1nc(-c2cccc(-c3ccc(CC(=O)NCCCCCCCN(C)CCO)cc3)c2)cc(NC(=O)Nc2c(Cl)cncc2Cl)c1=O | IC50 | = | 61 |
| CCn1nc(-c2cccc(-c3cc(C(=O)NC4CC4)cc(C(=O)NC4CCN(Cc5ccccc5)CC4)c3)c2)cc(NC(=O)Nc2c(Cl)cncc2Cl)c1=O | IC50 | > | 1000 |
| CCn1nc(-c2cccc(-c3cccc(C(=O)NCCN(C)C)c3)c2)cc(NC(=O)Nc2c(Cl)cncc2Cl)c1=O | IC50 | = | 2 |

* * *

# assay remarks: Inhibition of PDE4 in PBMC (unknown origin) assessed as reduction in LPS-induced TNFalpha production incubated for 24 hrs by ELISA
# test conditions: Homo sapiens

| line notation | IC50 |
| --- | --- |
| CCn1nc(-c2cccc(-c3ccc(O)nc3)c2)cc(NC(=O)Nc2c(Cl)cncc2Cl)c1=O | 1.1 nM |
| CCn1nc(-c2cccc(-c3cccc(C(=O)NCCN4CCNCC4)c3)c2)cc(NC(=O)Nc2c(Cl)cncc2Cl)c1=O | 0.34 nM |
| CCn1nc(-c2cccc(-c3ccccc3O)c2)cc(NC(=O)Nc2c(Cl)cncc2Cl)c1=O | 1.4 nM |
| CCn1nc(-c2cccc(-c3ccc(CC(=O)O)cc3)c2)cc(NC(=O)Nc2c(Cl)cncc2Cl)c1=O | 0.68 nM |
| CCNC(=O)c1cc(C(=O)NCCCN(C)C)cc(-c2cccc(-c3cc(NC(=O)Nc4c(Cl)cncc4Cl)c(=O)n(CC)n3)c2)c1 | 0.36 nM |
| CCn1nc(-c2cccc(-c3ccc(F)cc3O)c2)cc(NC(=O)Nc2c(Cl)cncc2Cl)c1=O | 1.3 nM |
| CCn1nc(-c2cccc(-c3cc(C(=O)O)ccc3F)c2)cc(NC(=O)Nc2c(Cl)cncc2Cl)c1=O | 6.6 nM |
| CCn1nc(-c2cccc(-c3cccc(C(=O)O)c3)c2)cc(NC(=O)Nc2c(Cl)cncc2Cl)c1=O | 2.17 nM |

* * *

# measured on: Adenosine receptor A2b (Homo sapiens, UniProt P29275)
# Sequence (P29275 whole entry): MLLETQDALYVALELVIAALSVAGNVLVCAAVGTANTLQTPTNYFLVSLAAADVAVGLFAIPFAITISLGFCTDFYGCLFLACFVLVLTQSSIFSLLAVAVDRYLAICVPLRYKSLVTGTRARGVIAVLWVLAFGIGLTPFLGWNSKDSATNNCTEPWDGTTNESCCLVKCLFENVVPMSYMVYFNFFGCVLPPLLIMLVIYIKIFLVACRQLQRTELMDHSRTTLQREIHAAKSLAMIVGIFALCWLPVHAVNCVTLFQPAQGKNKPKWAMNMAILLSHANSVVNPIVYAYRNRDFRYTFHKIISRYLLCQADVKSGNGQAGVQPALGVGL
pIC50: −log10 of the molar value.
measure name: pIC50

| line notation | measure name | censoring operator | readout value |
| --- | --- | --- | --- |
| CCn1nc(-c2cccc(-c3cc(C(=O)NC4CC4)cc(C(=O)NC4CC4)c3)c2)cc(NC(=O)Nc2c(Cl)cncc2Cl)c1=O | pIC50 | < | 6.00 |
| CCn1nc(-c2cccc(-c3ccc(CC(=O)NCCCCCCCN(C)CCO)cc3)c2)cc(NC(=O)Nc2c(Cl)cncc2Cl)c1=O | pIC50 | = | 7.03 |
| CCn1nc(-c2cccc(-c3cccc(C(=O)NCCCCCCCN(C)CCO)c3)c2)cc(NC(=O)Nc2c(Cl)cncc2Cl)c1=O | pIC50 | = | 6.69 |
| CCn1nc(-c2cccc(-c3cccc(CC(=O)O)c3)c2)cc(NC(=O)Nc2c(Cl)cncc2Cl)c1=O | pIC50 | = | 6.58 |
| CCn1nc(-c2cccc(-c3cccc(C(=O)NC4CC4)c3)c2)cc(NC(=O)Nc2c(Cl)cncc2Cl)c1=O | pIC50 | = | 6.92 |
| CCn1nc(-c2cccc(-c3cc(C(=O)NCCCN(C)C)cc(C(=O)OC)c3)c2)cc(NC(=O)Nc2c(Cl)cncc2Cl)c1=O | pIC50 | < | 6.00 |
| CCn1nc(-c2cccc(-c3cccc(C(=O)O)c3)c2)cc(NC(=O)Nc2c(Cl)cncc2Cl)c1=O | pIC50 | = | 6.65 |
| CCn1nc(-c2cccc(-c3cc(C(=O)NCCO)cc(C(=O)NCCN4CCCCC4)c3)c2)cc(NC(=O)Nc2c(Cl)cncc2Cl)c1=O | pIC50 | < | 6.57 |
| CCn1nc(-c2cccc(-c3cc(C#N)cc(C(=O)NC4CC4)c3)c2)cc(NC(=O)Nc2c(Cl)cncc2Cl)c1=O | pIC50 | < | 6.00 |

Origin of values: ChEMBL document CHEMBL3862036
